Structures can show the parent of a compound that is named as a salt.
quantityName: melting point

Data request: # melting point lookup, item O=C(NC(c1ccccc1)C12CC(CN1Cc1ccccc1)C2)c1cccc(C(F)(F)F)c1Cl (racemic) (as salt: HCl)
Data returned: 244 to 245.5 °C

Data request: # melting point lookup, item CN1CC2CC1(C(NC(=O)c1cccc(C(F)(F)F)c1Cl)c1ccccc1)C2.Cl (racemic)
Data returned: 168.5 to 169.5 °C

Data request: # melting point lookup, item CCc1ccccc1C(=O)NC(c1ccccc1)C12CC(CN1)C2 (racemic) (as salt: HCl)
Data returned: 264 to 265 °C

Data request: # melting point lookup, item O=C(NC(c1ccc2ccccc2c1)C12CC(CN1)C2)c1cccc(C(F)(F)F)c1Cl (racemic) (as salt: HCl)
Data returned: 135 to 170 °C

Data request: # melting point lookup, item O=C(NC(c1cccc(C(F)(F)F)c1)C12CC(CN1)C2)c1cccc(C(F)(F)F)c1Cl (racemic) (as salt: HCl)
Data returned: 214 to 217 °C

Data request: # melting point lookup, item O=C(NC(c1ccccc1)C12CC(CN1)C2)c1cccc(C(F)(F)F)c1Cl (single isomer, unassigned; (-)) (as salt: HCl) [Compound 13]
Data returned: 140 to 150 °C
